# Tested on: MOLT-4
# RUN DESCRIPTION: NCI-60 SRB growth inhibition, one-dose and five-dose
# Type: cell-based
# MEASUREMENT SETUP: Homo sapiens, MOLT-4
# GI50 annotations
State just the number; it will be interpreted in nM.

// below: answered compounds
>>> print(df.to_string())
                            chemical_string  quantitative_result
0  CC(=O)Nc1ccc(/C=C/C(=O)c2cccc(NCc3ccc(C)cc3)c2)cc1                 2690
1  COc1ccc(CNc2cccc(C(=O)/C=C/c3cccnc3)c2)cc1OC                 2950
2  CC(=O)Nc1ccc(/C=C/C(=O)c2cccc(NCc3ccc(NC(C)=O)cc3)c2)cc1                 3210
3  O=C(/C=C/c1cccnc1)c1cccc(NCc2ccc(CO)cc2)c1                 2690

Kindly consider the entry below.
Quick check: GI50 on MOLT-4, item Cc1ccc(CNc2cccc(C(=O)/C=C/c3cccnc3)c2)cc1 ?
3540

###

# Tested on: MALME-3M
# RUN DESCRIPTION: NCI-60 SRB growth inhibition, one-dose and five-dose
# Format: cell-based
# MEASUREMENT SETUP: Homo sapiens, read-out: percent growth inhibition
ASSAY ENDPOINT: inhibition at 10 µM (%)
State just the number; it will be interpreted in %.

// below: answered compounds
In [3]: df
Out[3]:
                            chemical_string  unit_descriptor  quantitative_result
0  CC(=O)Nc1ccc(/C=C/C(=O)c2cccc(NCc3csc4ccccc34)c2)cc1                %                 55.5
1  COc1ccc(CNc2cccc(C(=O)/C=C/c3ccc(NC(C)=O)cc3)c2)cc1OC                %                  151
2  CC(=O)Nc1ccc(/C=C/C(=O)c2cccc(NCc3ccc4oc(=O)ccc4c3)c2)cc1                %                 37.8
3  CC(=O)Nc1ccc(/C=C/C(=O)c2cccc(NCc3ccc(C)cc3)c2)cc1                %                 31.1
4  CC(=O)Nc1ccc(CNc2cccc(C(=O)/C=C/c3c[nH]cn3)c2)cc1                %                 26.4

Quick check: inhibition at 10 µM on MALME-3M, item Cc1ccc(CNc2cccc(C(=O)/C=C/c3cccnc3)c2)cc1 ?
127

Quick check: inhibition at 10 µM on MALME-3M, item CC(=O)Nc1ccc(/C=C/C(=O)c2cccc(NCc3ccc(CO)cc3)c2)cc1 ?
141

Quick check: inhibition at 10 µM on MALME-3M, item O=C(/C=C/c1cccnc1)c1cccc(NCc2ccc(CO)cc2)c1 ?
41.4

Quick check: inhibition at 10 µM on MALME-3M, item COc1ccc(CNc2cccc(C(=O)/C=C/c3cccnc3)c2)cc1OC ?
101

Quick check: inhibition at 10 µM on MALME-3M, item CC(=O)Nc1ccc(/C=C/C(=O)c2cccc(NCc3ccc(NC(C)=O)cc3)c2)cc1 ?
57.5

Quick check: inhibition at 10 µM on MALME-3M, item O=C(/C=C/c1c[nH]cn1)c1cccc(NCc2ccc3oc(=O)ccc3c2)c1 ?
37.8

###

# Test system: LOX IMVI
# RUN DESCRIPTION: NCI-60 SRB growth inhibition, one-dose and five-dose
# Assay type: cell-based
# MEASUREMENT SETUP: Homo sapiens
ASSAY ENDPOINT: GI50

In [3]: df
Out[3]:
                            chemical_string  assay_endpoint   result
0  COc1ccc(CNc2cccc(C(=O)/C=C/c3ccc(NC(C)=O)cc3)c2)cc1OC            GI50   1.8 µM
1  O=C(/C=C/c1cccnc1)c1cccc(NCc2csc3ccccc23)c1            GI50  1.69 µM
2  CC(=O)Nc1ccc(/C=C/C(=O)c2cccc(NCc3csc4ccccc34)c2)cc1            GI50  2.05 µM
3  CC(=O)Nc1ccc(/C=C/C(=O)c2cccc(NCc3ccc(C)cc3)c2)cc1            GI50  2.97 µM

Kindly consider the entry below.
Give its GI50 value. Item: Cc1ccc(CNc2cccc(C(=O)/C=C/c3cccnc3)c2)cc1
1.88 µM

###

# System: UO-31
# RUN DESCRIPTION: NCI-60 SRB growth inhibition, one-dose and five-dose
# Format: cell-based
# MEASUREMENT SETUP: Homo sapiens, UO-31
ASSAY ENDPOINT: GI50 (µM)
State just the number; it will be interpreted in µM.

Give its GI50 value. Item: COc1ccc(CNc2cccc(C(=O)/C=C/c3ccc(NC(C)=O)cc3)c2)cc1OC
3

Give its GI50 value. Item: CC(=O)Nc1ccc(/C=C/C(=O)c2cccc(NCc3ccc(CO)cc3)c2)cc1
10.7

Give its GI50 value. Item: CC(=O)Nc1ccc(/C=C/C(=O)c2cccc(NCc3csc4ccccc34)c2)cc1
5.16

Give its GI50 value. Item: CC(=O)Nc1ccc(/C=C/C(=O)c2cccc(NCc3ccc(C)cc3)c2)cc1
6.78

###

# inhibition at 10 µM annotations
# System: MDA-MB-231/ATCC
# RUN DESCRIPTION: NCI-60 SRB growth inhibition, one-dose and five-dose
# Assay type: cell-based
# MEASUREMENT SETUP: Homo sapiens, MDA-MB-231, read-out: percent growth inhibition
State just the number; it will be interpreted in %.

// below: answered molecules
>>> print(df.to_string())
                                   molecule        tested_on  unit_descriptor  quantitative_result
0  Cc1ccc(CNc2cccc(C(=O)/C=C/c3cccnc3)c2)cc1 [Compound 5a]  MDA-MB-231/ATCC                %                  110
1  CC(=O)Nc1ccc(/C=C/C(=O)c2cccc(NCc3ccc(C)cc3)c2)cc1 [Compound 5f]  MDA-MB-231/ATCC                %                 89.4
2  COc1ccc(CNc2cccc(C(=O)/C=C/c3ccc(NC(C)=O)cc3)c2)cc1OC [Compound 5h]  MDA-MB-231/ATCC                %                 89.4

Kindly consider the entry below.
Give its inhibition at 10 µM value. Item: COc1ccc(CNc2cccc(C(=O)/C=C/c3cccnc3)c2)cc1OC [Compound 5c]
94.5

###

# Test system: EKVX
# RUN DESCRIPTION: NCI-60 SRB growth inhibition, one-dose and five-dose
# Format: cell-based
# MEASUREMENT SETUP: Homo sapiens
# GI50 annotations
State just the number; it will be interpreted in µM.

// below: answered molecules
>>> print(df.to_string())
                            chemical_string  quantitative_result
0  CC(=O)Nc1ccc(CNc2cccc(C(=O)/C=C/c3cccnc3)c2)cc1                 4.87
1  CC(=O)Nc1ccc(/C=C/C(=O)c2cccc(NCc3ccc(C)cc3)c2)cc1                 12.6
2  CC(=O)Nc1ccc(/C=C/C(=O)c2cccc(NCc3ccc(NC(C)=O)cc3)c2)cc1                 13.5

Quick check: GI50 on EKVX, item Cc1ccc(CNc2cccc(C(=O)/C=C/c3cccnc3)c2)cc1 ?
12.8

Quick check: GI50 on EKVX, item COc1ccc(CNc2cccc(C(=O)/C=C/c3cccnc3)c2)cc1OC ?
10.4

Quick check: GI50 on EKVX, item O=C(/C=C/c1cccnc1)c1cccc(NCc2ccc(CO)cc2)c1 ?
13.7

###

# SI (Selectivity Index) annotations
# Tested on: NSCLC cell lines
# RUN DESCRIPTION: NCI-60 SRB growth inhibition, subpanel
# Type: cell-based, human
# MEASUREMENT SETUP: full panel MG-MID / NSCLC subpanel MG-MID
When you answer, write just the number.

>>> print(df.to_string())
                            chemical_string  quantitative_result
0  O=C(/C=C/c1cccnc1)c1cccc(NCc2ccc(CO)cc2)c1                 0.73
1  O=C(/C=C/c1cccnc1)c1cccc(NCc2csc3ccccc23)c1                 0.69
2  COc1ccc(CNc2cccc(C(=O)/C=C/c3ccc(NC(C)=O)cc3)c2)cc1OC                 0.50

Kindly consider the entry below.
Quick check: SI (Selectivity Index) on NSCLC cell lines, item CC(=O)Nc1ccc(CNc2cccc(C(=O)/C=C/c3cccnc3)c2)cc1 ?
0.64
